- PARTICULARS: 293.15 K; 101 kPa; Liquid
EXPERIMENTAL_ENDPOINT: mass density (kg/m3)
Write it as a number; the unit kg/m3 goes unstated.

Examples from the recorded data:
CCO	789.75
CCOC(C)=O [ethyl acetate]	900.52
COC(C)=O [methyl ethanoate]	933.56

Now examine the next entry.
Prompt: Can you look up the measured mass density of `CO` for me?
Response: 791.9

---

- PARTICULARS: 298.15 K; 101 kPa; Liquid
EXPERIMENTAL_ENDPOINT: viscosity (mPa·s)
Give just the number in mPa·s; leave the unit off.

Sample answers from the record:
COC(C)=O [methyl ethanoate]	0.367
CCOC(C)=O [ethyl acetate]	0.426
CO	0.545

Prompt: // returns reported viscosity for input `CCO`
Response: 1.082
